All figures here come from the supplement of paper PMC10567573.

B1: RHOBTB3 (parent)
chain: QLQSMPSRELASMNLDIVDLLKKA

variants of: B1; test: protein stability index of a GFP-peptide fusion (GPS, HEK-293T) (PSI 1-6); higher = more stable; settings: c terminus: a fixed tail appended;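 further: lentivirally expressed fusions sorted by FACS into six bins by GFP to DsRed ratio, PSI derived from sequencing read proportions per bin multiplied by bin number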
Measured Property: protein stability index

1) QLQSMPSRELASMNLDIVDLVKKA [L21V]: 4.12
2) QLQSMPSRELASRNLDIVDLLKKA [M13R]: 3.61
3) QLQSMPSRHLASMNLDIVDLLKKA [E9H]: 2.99
4) QLQSMPSRELASMNLDIVLLLKKA [D19L]: 1.48
5) QLQSMPSRELASMGLDIVDLLKKA [N14G]: 3.68
6) QLQSMPSRELASMNLGIVDLLKKA [D16G]: 3.63
7) QLQSMPSRELASMNLDIVNLLKKA [D19N]: 3.15
8) QLQSMPSRELASMNLDIFDLLKKA [V18F]: 2.39
9) QLQSMPSRELASMNLDIVTLLKKA [D19T]: 2.85
10) QLQSMPSRELASMNLDIVDLLKKC [A24C]: 3.14
11) QLQFMPSRELASMNLDIVDLLKKA [S4F]: 3.19
12) QLQSMPSREVASMNLDIVDLLKKA [L10V]: 3.6
13) QLQSMPSREGASMNLDIVDLLKKA [L10G]: 2.62
14) QLQSMPSRELASMLLDIVDLLKKA [N14L]: 2.6
15) QCQSMPSRELASMNLDIVDLLKKA [L2C]: 4.45
16) QLQSMPSRELASMNLDIVDLSKKA [L21S]: 4.12
17) NLQSMPSRELASMNLDIVDLLKKA [Q1N]: 3.65
18) QLQSMPSRELASMNLDIVDPLKKA [L20P]: 4.31
19) QLQSMPSRELASMNCDIVDLLKKA [L15C]: 4.27
20) QLQSMPSRELASMNLDIVDHLKKA [L20H]: 3.63
21) QLQSMPSRELASMNLDIVDELKKA [L20E]: 4.84
22) QLQSMPSRELASMNLDIVDLPKKA [L21P]: 3.84
23) QLQSMPSRELASMNLDWVDLLKKA [I17W]: 3.45
24) QLQSMPSPELASMNLDIVDLLKKA [R8P]: 3.22
25) QLQSMPSRELASMNLDNVDLLKKA [I17N]: 3.88
26) QLQSMPSRELASMNLDIVDLLKPA [K23P]: 3.22
27) QLQSMPSRELASMNLDIVALLKKA [D19A]: 3
28) QLQSMPSRELASMNLDIVDLLIKA [K22I]: 2.32
29) QLQSMPSRELASMNLDIVDLLLKA [K22L]: 2.07
30) QVQSMPSRELASMNLDIVDLLKKA [L2V]: 2.77
31) QLQSMPSRERASMNLDIVDLLKKA [L10R]: 3.71
32) QLQSMPSRELMSMNLDIVDLLKKA [A11M]: 3.34
33) QLQSMPSRELASMELDIVDLLKKA [N14E]: 3.62
34) QLQSMPSRELASMNLDIVDLLKIA [K23I]: 2.48
35) QQQSMPSRELASMNLDIVDLLKKA [L2Q]: 3.78
36) QLQSMPSRELLSMNLDIVDLLKKA [A11L]: 3.11
37) QLWSMPSRELASMNLDIVDLLKKA [Q3W]: 2.48
38) QLQSMPSRELASINLDIVDLLKKA [M13I]: 2.39
39) QLQSMPSMELASMNLDIVDLLKKA [R8M]: 3.2
40) QLQSMPSRELASMNLNIVDLLKKA [D16N]: 2.88
41) QLQSMPSRELQSMNLDIVDLLKKA [A11Q]: 3.37
42) QLQSMPSRELASMHLDIVDLLKKA [N14H]: 3.01
43) QLQSMPSRELASMNLDIGDLLKKA [V18G]: 3.65
44) QLQSMPSRELASMNLDIVDLLFKA [K22F]: 2.29
45) QKQSMPSRELASMNLDIVDLLKKA [L2K]: 3.18
46) QLQSMPSRELASFNLDIVDLLKKA [M13F]: 2.97
47) QLQSMPSSELASMNLDIVDLLKKA [R8S]: 3.99
48) QLQSMPSRELASMNLDIADLLKKA [V18A]: 4.01
49) QLQSMPSRELASMNLDIWDLLKKA [V18W]: 2.61
50) QLQSMPSRELASMNLDIYDLLKKA [V18Y]: 2.6
51) QLQSLPSRELASMNLDIVDLLKKA [M5L]: 3.88
52) QLQSMPSRELASMNLDIVDLLKKY [A24Y]: 3.35
53) QLQSMPSRELADMNLDIVDLLKKA [S12D]: 3.68
54) QLQSMPSRELAEMNLDIVDLLKKA [S12E]: 4.26
55) QLQSMPSRELASMNLDIVDLLAKA [K22A]: 3.01
56) ILQSMPSRELASMNLDIVDLLKKA [Q1I]: 2.71
57) QLQSMPMRELASMNLDIVDLLKKA [S7M]: 2.51
58) QLQSMPSREKASMNLDIVDLLKKA [L10K]: 3.02
59) QLQSMPSRELRSMNLDIVDLLKKA [A11R]: 2.81
60) QLQSMPSRLLASMNLDIVDLLKKA [E9L]: 2.7
61) QLGSMPSRELASMNLDIVDLLKKA [Q3G]: 3.85
62) QFQSMPSRELASMNLDIVDLLKKA [L2F]: 3.04
63) QLQSMPSRELASMNLDIVDLLKKM [A24M]: 3.39
64) QLQSMPSRELASTNLDIVDLLKKA [M13T]: 3.38
65) QLQSMPSRELASMNLDIVDLNKKA [L21N]: 3.27
